Reference for the values: PubChem BioAssay (NCATS)

# Test system: UISO
# Protocol Notes: qHTS assay to identify novel small-molecules to repurpose for Merkel cell carcinoma treatment (AID 1296009); also: nearly all actives have a fitted effect of over 60% in size
# Experimental Conditions: MCC and control cell lines, CellTiter-Glo viability, 72 h; series mostly up to 46 µM
Records with an inconclusive call do not appear. Calls of active or inactive are those of the source. Calls follow the shape of the dose curve; as a rule, active = well fitted inhibition curve with a large enough effect; inconclusive = small, poorly fitted or top-dose-only effect; inactive = flat fitted curve, though single readings scatter.
Labels: class 1 = active, class 0 = inactive

Molecule: CCN1CCC[C@H]1CNC(=O)c1cc(S(N)(=O)=O)ccc1OC
Tested On: UISO
Qualitative Label: class 0
--
Molecule: O=C(O)CCc1nc(-c2ccccc2)c(-c2ccccc2)o1
Tested On: UISO
Qualitative Label: class 0
--
Molecule: CCCNC(=O)NS(=O)(=O)c1ccc(Cl)cc1
Tested On: UISO
Qualitative Label: class 0
--
Molecule: Nc1ncnc2c1ncn2[C@@H]1O[C@@H](CO)[C@H](O)[C@H]1O
Tested On: UISO
Qualitative Label: class 0
--
Molecule: CC(C(=O)O)c1ccc(-c2ccccc2)c(F)c1 (stereo unspecified)
Tested On: UISO
Qualitative Label: class 0
--
Molecule: N#CC(=C(N)Sc1ccccc1N)C(C#N)=C(N)Sc1ccccc1N
Tested On: UISO
Qualitative Label: class 1
--
Molecule: CCNc1cc(NC2CCC(O)CC2)nc(Nc2ccc3c(ccn3Cc3ccccc3)c2)n1 (stereo unspecified)
Tested On: UISO
Qualitative Label: class 0
--
Molecule: O=C(NC1CCOCC1)c1ccc(-c2cc(-c3cn[nH]c3-c3ccccn3)ccn2)cc1
Tested On: UISO
Qualitative Label: class 0
--
Molecule: CC=CCC=CCCC(=O)[C@H]1O[C@@H]1C(N)=O
Tested On: UISO
Qualitative Label: class 0
--
Molecule: O=C(O)c1c(Cl)c(Cl)c(Cl)c(Cl)c1-c1c2cc(I)c(=O)c(I)c-2oc2c(I)c(O)c(I)cc12
Tested On: UISO
Qualitative Label: class 0
--
Molecule: O=C(CCc1ccc(O)cc1)c1c(O)cc(O)cc1O[C@@H]1O[C@H](CO)[C@H](O)[C@H](O)[C@H]1O
Tested On: UISO
Qualitative Label: class 0
--
Molecule: O=C(CCCCCCC(=O)Nc1ccccc1)NO
Tested On: UISO
Qualitative Label: class 1
--
Molecule: C=C1C(=O)[C@@]23C(CC[C@@H]1[C@H]2O)[C@@]12CO[C@]3(O)[C@@H](O)[C@@H]1C(C)(C)CC[C@@H]2O (stereo partly specified)
Tested On: UISO
Qualitative Label: class 1
--
Molecule: CC(=Cc1ccccc1)C=C1SC(=S)N(CC(=O)O)C1=O
Tested On: UISO
Qualitative Label: class 0
--
Molecule: CCn1cc(C(=O)O)c(=O)c2ccc(C)nc21
Tested On: UISO
Qualitative Label: class 0
--
Molecule: COC[C@@H](c1ccc(C(F)(F)F)cc1)N1CCN(C2(C)CCN(C(=O)c3c(C)ncnc3C)CC2)C[C@H]1C
Tested On: UISO
Qualitative Label: class 0
--
Molecule: O=C(O)c1cc(-c2ccccc2)nc2ccccc12
Tested On: UISO
Qualitative Label: class 0
--
Molecule: COc1ccc(Cc2ccc(NC(N)=O)cc2)cc1-c1cccc(Cl)c1
Tested On: UISO
Qualitative Label: class 0
--
Molecule: CC(=O)CCCCn1c(=O)c2c(ncn2C)n(C)c1=O
Tested On: UISO
Qualitative Label: class 0
--
Molecule: CCS(=O)(=O)N1CC(CC#N)(n2cc(-c3ncnc4[nH]ccc34)cn2)C1
Tested On: UISO
Qualitative Label: class 0
--
Molecule: CCCCCNC(=O)N1CCC(CN(Cc2ccc(Cl)cc2)Cc2ccc([N+](=O)[O-])s2)C1 (stereo unspecified)
Tested On: UISO
Qualitative Label: class 0
